Origin of the recorded values: patent US8815915B2

Molecular target: CCR2 receptor (Homo sapiens)
Construct: expressed in transfected cells
Assay: compound-induced calcium activity on FLIPR Tetra in HEK-Gqi5 cells stably expressing CCR2
Assay type: cell-based
Details: CCR2 receptor; HEK-Gqi5 cells stably expressing CCR2; calcium FLIPR Tetra
Below is a list of entries, each paired with its recorded % ANTAGONISM value.
The reply should contain only the number, in %.

Notebook: COC(=O)c1ccccc1Oc1ncc(Cl)cc1NS(=O)(=O)c1cc2ccccc2o1 [Compound 25] , % ANTAGONISM read as 93

Record Nc1cccc(CS(=O)(=O)c2ncc(Cl)cc2NS(=O)(=O)c2cc3ccccc3o2)c1 [Compound 20] , field % ANTAGONISM: 100

// recorded % ANTAGONISM for COC(=O)c1ccccc1C[S+]([O-])c1ncc(Cl)cc1NS(=O)(=O)c1cc2ccccc2o1 (stereo not drawn) [Compound 37] : 95

So for Nc1cccc(C[S+]([O-])c2ncc(Cl)cc2NS(=O)(=O)c2cc3ccccc3o2)c1 (stereo not drawn) [Compound 19] , the logged % ANTAGONISM turned out to be 97

For reference, reported % ANTAGONISM for O=C(O)c1cccc(Sc2ncc(Cl)cc2NS(=O)(=O)c2cc3ccccc3o2)c1 [Compound 48] stands at 96

More entries:
// % ANTAGONISM lookup, compound = Nc1cccc(C[S+]([O-])c2ncccc2NS(=O)(=O)c2cc3ccccc3o2)c1 (stereo not drawn) [Compound 12] , result: 100

Record COC(=O)c1ccccc1CS(=O)(=O)c1ncccc1NS(=O)(=O)c1cc2ccccc2o1 [Compound 60] . Reported % ANTAGONISM: 101

###

Biological target: CCR2 receptor (Homo sapiens)
Construct: expressed in transfected cells
Assay: compound-induced calcium activity on FLIPR Tetra in HEK-Gqi5 cells stably expressing CCR2
Assay type: cell-based
assay-endpoint: IC50 (nM)
Just the number please, in nM, no unit attached.

Reported IC50 of O=C1CCN(C(=O)c2ncc(Cl)cc2NS(=O)(=O)c2cc3ccccc3o2)CC1 : 24

###

Target: CCR2 receptor (Homo sapiens, UniProt P41597)
Construct: expressed in transfected cells
Sequence (P41597 whole entry): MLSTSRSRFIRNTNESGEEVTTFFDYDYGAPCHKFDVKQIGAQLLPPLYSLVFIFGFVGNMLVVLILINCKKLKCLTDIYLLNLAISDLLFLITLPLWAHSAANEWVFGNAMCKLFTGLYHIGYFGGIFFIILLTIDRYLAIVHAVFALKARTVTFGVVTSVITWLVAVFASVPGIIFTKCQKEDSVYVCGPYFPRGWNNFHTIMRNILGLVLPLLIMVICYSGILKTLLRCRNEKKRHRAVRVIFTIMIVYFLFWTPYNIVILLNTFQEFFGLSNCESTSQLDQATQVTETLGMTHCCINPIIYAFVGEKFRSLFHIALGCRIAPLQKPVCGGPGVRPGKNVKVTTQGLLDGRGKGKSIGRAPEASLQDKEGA
Assay: compound-induced calcium activity on FLIPR Tetra in HEK-Gqi5 cells stably expressing CCR2
Assay type: cell-based
Conditions: CCR2 receptor; HEK-Gqi5 cells stably expressing CCR2; calcium FLIPR Tetra
Protocol: HEK-Gqi5 cells stably expressing CCR2 were cultured in (DMEM high glucose, 10% FBS, 1% PSA, 400 μg/ml geneticin and 50 μg/ml hygromycin. Appropriate positive control chemokines (MCP-1, MIP1A or RANTES) was used as the positive control agonist for screening compound-induced calcium activity assayed on the FLIPR^Tetra. The drug plates were prepared in 384-well microplates using the EP3 and the MultiPROBE robotic liquid handling systems. Compounds were synthesized and tested for CCR2 activity.
Reported % ANTAGONISM values for a set of molecules
Give your result in % as a bare value.

// field: % ANTAGONISM; key: O=C(O)c1ccccc1C[S+]([O-])c1ncccc1NS(=O)(=O)c1cc2ccccc2o1 (centres unmarked) ; value = 58

Now look at this entry.
Measured % ANTAGONISM, O=S(=O)(Nc1cc(Cl)cnc1[S+]([O-])Cc1ccccc1)c1cc2ccccc2o1 (centres unmarked) : 94

###

Here, each record is paired with measured % ANTAGONISM data.
Biological target: CCR2 receptor (Homo sapiens, UniProt P41597)
Construct: expressed in transfected cells
Assay: compound-induced calcium activity on FLIPR Tetra in HEK-Gqi5 cells stably expressing CCR2
Type: cell-based
Details: CCR2 receptor; HEK-Gqi5 cells stably expressing CCR2; calcium FLIPR Tetra
Dear colleague, please return just the value in %, with no unit written.

Answered examples (4):
Quick note, % ANTAGONISM for O=S(=O)(Nc1cc(F)cnc1[S+]([O-])c1ccccc1)c1cc2ccccc2o1 (stereo not drawn) [Compound 41] landed at 97

Lab note: O=C(O)c1ccccc1C[S+]([O-])c1ncc(Cl)cc1NS(=O)(=O)c1cc2ccccc2o1 (stereo not drawn) [Compound 43] gave % ANTAGONISM of 90

// sample O=S(=O)(Cc1ccccc1)c1ncc(Cl)cc1NS(=O)(=O)c1cc2ccccc2o1 [Compound 3] , its % ANTAGONISM was 90

So, O=S(=O)(Nc1cc(Cl)cnc1[S+]([O-])Cc1cccnc1)c1cc2ccccc2o1 (stereo not drawn) [Compound 5] ? Its % ANTAGONISM was 99

Further cases:
The reported value for O=S(=O)(Cc1ccc[n+]([O-])c1)c1ncc(Cl)cc1NS(=O)(=O)c1cc2ccccc2o1 [Compound 7] in terms of % ANTAGONISM is 100

The reported value for Cc1cnc(S(=O)(=O)Cc2ccccc2)c(NS(=O)(=O)c2cc3ccccc3o2)c1 [Compound 23] in terms of % ANTAGONISM is 96
